# measurement protocol: Distribution coefficient, logD of compound
# Format: physicochemical
# test parameters: octanol/water
reported endpoint: logD

COC(=O)CNC(=O)c1ccc(OCCC[N+]2=C(/C=C/C3=C(Cl)C(=C/C=C4/N(Cc5ccc(C(=O)O)cc5)c5ccccc5C4(C)C)/CCC3)C(C)(C)c3ccccc32)cc1.[Br-] 4.3
Cc1ccc2c(c1)C(C)(C)C(/C=C/C1=C(Cl)C(=C/C=C3/N(CCCOc4ccc(C(=O)O)cc4)c4ccc(C)cc4C3(C)C)/CCC1)=[N+]2CCCOc1ccc(C(=O)O)cc1.[Br-] 4.02
CC1(C)C(/C=C/C2=C(Cl)C(=C/C=C3/N(CCCCCC(=O)O)c4ccccc4C3(C)C)/CCC2)=[N+](CCCOc2ccc(C(=O)O)cc2)c2ccccc21.[Br-] 4.23
CCN1/C(=C/C=C2\CCCC(/C=C/C3=[N+](CCCOc4ccc(C(=O)O)cc4)c4ccccc4C3(C)C)=C2Cl)C(C)(C)c2ccccc21.[Br-] 4.34
CCN1/C(=C/C=C2\CCCC(/C=C/C3=[N+](Cc4ccc(C(=O)O)cc4)c4ccccc4C3(C)C)=C2Cl)C(C)(C)c2ccccc21.[Br-] 4.24
CC1(C)C(/C=C/C2=C(Cl)C(=C/C=C3/N(CCCOc4ccc(C(=O)O)cc4)c4ccc5ccccc5c4C3(C)C)/CCC2)=[N+](CCCOc2ccc(C(=O)O)cc2)c2ccc3ccccc3c21.[Br-] 4.19
COC(=O)CCC(=O)CNC(=O)c1ccc(CN2/C(=C/C=C3\CCCC(/C=C/C4=[N+](Cc5ccc(C(=O)NCC(=O)CCC(=O)OC)cc5)c5ccc6ccccc6c5C4(C)C)=C3Cl)C(C)(C)c3c2ccc2ccccc32)cc1.[Br-] 5.28
CC(C)(C)OC(=O)Nc1ccc2c(c1)C(C)(C)C(/C=C/C1=C(Cl)C(=C/C=C3/N(Cc4ccc(C(=O)O)cc4)c4ccc(NC(=O)OC(C)(C)C)cc4C3(C)C)/CCC1)=[N+]2Cc1ccc(C(=O)O)cc1 3.78
COC(=O)CNC(=O)CCN1/C(=C/C=C2\CCCC(/C=C/C3=[N+](CCC(=O)NCC(=O)OC)c4ccc5ccccc5c4C3(C)C)=C2Cl)C(C)(C)c2c1ccc1ccccc21 3.39
CCCN1/C(=C/C=C2\CCCC(/C=C/C3=[N+](Cc4ccc(C(=O)O)cc4)c4ccccc4C3(C)C)=C2Cl)C(C)(C)c2ccccc21.[Br-] 4.49
CC1(C)C(/C=C/C=C/C=C/C=C2/N(CCCOc3ccc(C(=O)O)cc3)c3ccc4ccccc4c3C2(C)C)=[N+](CCCOc2ccc(C(=O)O)cc2)c2ccc3ccccc3c21.[Br-] 3.79

* * *

# measurement protocol: Partition coefficient, logP of compound
# Type: physicochemical
# test parameters: octanol/water
reported endpoint: logP

COC(=O)CNC(=O)c1ccc(OCCC[N+]2=C(/C=C/C3=C(Cl)C(=C/C=C4/N(Cc5ccc(C(=O)O)cc5)c5ccccc5C4(C)C)/CCC3)C(C)(C)c3ccccc32)cc1.[Br-] 6.18
COC(=O)CCC(=O)CNC(=O)c1ccc(CN2/C(=C/C=C3\CCCC(/C=C/C4=[N+](Cc5ccc(C(=O)NCC(=O)CCC(=O)OC)cc5)c5ccccc5C4(C)C)=C3Cl)C(C)(C)c3ccccc32)cc1.[Br-] 6.17
COC(=O)CCC(=O)CNC(=O)c1ccc(CN2/C(=C/C=C3\CCCC(/C=C/C4=[N+](Cc5ccc(C(=O)NCC(=O)CCC(=O)OC)cc5)c5ccc6ccccc6c5C4(C)C)=C3Cl)C(C)(C)c3c2ccc2ccccc32)cc1.[Br-] 7.21
CC1(C)C(/C=C/C2=C(Cl)C(=C/C=C3/N(CCCCCC(=O)O)c4ccccc4C3(C)C)/CCC2)=[N+](CCCOc2ccc(C(=O)O)cc2)c2ccccc21.[Br-] 5.9
Cc1ccc2c(c1)C(C)(C)C(/C=C/C1=C(Cl)C(=C/C=C3/N(Cc4ccc(C(=O)O)cc4)c4ccc(C)cc4C3(C)C)/CCC1)=[N+]2Cc1ccc(C(=O)O)cc1.[Br-] 6.14
CCN1/C(=C/C=C2\CCCC(/C=C/C3=[N+](Cc4ccc(C(=O)O)cc4)c4ccccc4C3(C)C)=C2Cl)C(C)(C)c2ccccc21.[Br-] 5.89
COC(=O)CNC(=O)CCN1/C(=C/C=C2\CCCC(/C=C/C3=[N+](CCC(=O)NCC(=O)OC)c4ccc5ccccc5c4C3(C)C)=C2Cl)C(C)(C)c2c1ccc1ccccc21 6.18
CC(C)(C)OC(=O)Nc1ccc2c(c1)C(C)(C)C(/C=C/C1=C(Cl)C(=C/C=C3/N(Cc4ccc(C(=O)O)cc4)c4ccc(NC(=O)OC(C)(C)C)cc4C3(C)C)/CCC1)=[N+]2Cc1ccc(C(=O)O)cc1 6.92
CCCN1/C(=C/C=C2\CCCC(/C=C/C3=[N+](Cc4ccc(C(=O)O)cc4)c4ccccc4C3(C)C)=C2Cl)C(C)(C)c2ccccc21.[Br-] 6.09
CC1(C)C(/C=C/C=C/C=C/C=C2/N(Cc3ccc(C(=O)O)cc3)c3ccc4ccccc4c3C2(C)C)=[N+](Cc2ccc(C(=O)O)cc2)c2ccc3ccccc3c21.[Br-] 7.06
CCN1/C(=C/C=C2\CCCC(/C=C/C3=[N+](CCCOc4ccc(C(=O)O)cc4)c4ccccc4C3(C)C)=C2Cl)C(C)(C)c2ccccc21.[Br-] 6.05
